- study system: human Nav1.7 (Homo sapiens, UniProt Q15858)
- Construct: expressed in transfected cells
- Sequence (Q15858 whole entry): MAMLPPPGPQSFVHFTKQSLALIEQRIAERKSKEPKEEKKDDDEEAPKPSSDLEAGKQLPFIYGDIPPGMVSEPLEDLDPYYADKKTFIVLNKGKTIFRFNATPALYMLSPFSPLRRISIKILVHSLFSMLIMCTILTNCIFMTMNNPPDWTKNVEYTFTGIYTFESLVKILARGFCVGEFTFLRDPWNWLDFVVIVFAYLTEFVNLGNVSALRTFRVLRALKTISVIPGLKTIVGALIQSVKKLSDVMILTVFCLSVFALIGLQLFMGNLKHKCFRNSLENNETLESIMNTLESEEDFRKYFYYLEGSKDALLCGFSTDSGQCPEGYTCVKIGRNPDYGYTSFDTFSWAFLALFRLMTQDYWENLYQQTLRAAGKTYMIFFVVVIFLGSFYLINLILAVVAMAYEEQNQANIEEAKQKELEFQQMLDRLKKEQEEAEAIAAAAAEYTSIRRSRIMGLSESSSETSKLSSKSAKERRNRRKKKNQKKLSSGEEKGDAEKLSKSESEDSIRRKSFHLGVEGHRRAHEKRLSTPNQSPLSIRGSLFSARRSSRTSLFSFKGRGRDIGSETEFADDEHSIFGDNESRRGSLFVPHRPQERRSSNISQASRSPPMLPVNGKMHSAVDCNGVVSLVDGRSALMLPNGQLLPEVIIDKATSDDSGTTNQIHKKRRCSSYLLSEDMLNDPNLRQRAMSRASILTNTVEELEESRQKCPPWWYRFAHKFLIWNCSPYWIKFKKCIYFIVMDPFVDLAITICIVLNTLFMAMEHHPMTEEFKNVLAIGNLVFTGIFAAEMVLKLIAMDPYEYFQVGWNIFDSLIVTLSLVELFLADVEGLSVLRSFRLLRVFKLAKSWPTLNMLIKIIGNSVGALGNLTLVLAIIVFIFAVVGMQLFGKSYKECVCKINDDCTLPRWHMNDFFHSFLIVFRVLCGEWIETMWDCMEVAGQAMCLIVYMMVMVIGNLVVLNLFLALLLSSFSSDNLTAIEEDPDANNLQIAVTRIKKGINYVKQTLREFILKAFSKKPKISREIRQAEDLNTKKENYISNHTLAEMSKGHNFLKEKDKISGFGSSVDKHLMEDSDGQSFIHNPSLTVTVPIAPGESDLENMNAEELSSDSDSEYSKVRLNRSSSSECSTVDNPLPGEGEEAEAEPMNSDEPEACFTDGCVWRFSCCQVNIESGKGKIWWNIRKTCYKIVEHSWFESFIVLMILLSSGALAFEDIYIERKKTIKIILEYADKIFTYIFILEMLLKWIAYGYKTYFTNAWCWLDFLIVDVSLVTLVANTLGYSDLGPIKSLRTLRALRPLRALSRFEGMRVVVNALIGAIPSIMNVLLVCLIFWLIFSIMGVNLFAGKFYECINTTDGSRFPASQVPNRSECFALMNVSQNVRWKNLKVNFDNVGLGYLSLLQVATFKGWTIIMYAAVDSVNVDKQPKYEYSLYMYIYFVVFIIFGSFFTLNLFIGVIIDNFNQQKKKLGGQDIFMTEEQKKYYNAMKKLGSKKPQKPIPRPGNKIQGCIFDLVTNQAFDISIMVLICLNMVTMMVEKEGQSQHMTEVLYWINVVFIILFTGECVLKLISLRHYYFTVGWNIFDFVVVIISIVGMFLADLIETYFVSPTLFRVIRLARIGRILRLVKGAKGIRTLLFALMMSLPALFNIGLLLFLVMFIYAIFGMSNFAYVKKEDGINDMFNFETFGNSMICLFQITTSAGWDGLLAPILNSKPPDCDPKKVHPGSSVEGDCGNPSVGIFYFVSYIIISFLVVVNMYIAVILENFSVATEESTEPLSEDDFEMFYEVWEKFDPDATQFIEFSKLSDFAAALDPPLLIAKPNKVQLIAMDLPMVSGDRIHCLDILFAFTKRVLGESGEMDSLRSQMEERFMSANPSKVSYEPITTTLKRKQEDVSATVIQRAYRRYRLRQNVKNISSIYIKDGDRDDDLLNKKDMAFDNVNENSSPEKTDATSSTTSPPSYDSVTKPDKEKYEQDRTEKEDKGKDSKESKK
- Sequence (Q07699 19-218 partner): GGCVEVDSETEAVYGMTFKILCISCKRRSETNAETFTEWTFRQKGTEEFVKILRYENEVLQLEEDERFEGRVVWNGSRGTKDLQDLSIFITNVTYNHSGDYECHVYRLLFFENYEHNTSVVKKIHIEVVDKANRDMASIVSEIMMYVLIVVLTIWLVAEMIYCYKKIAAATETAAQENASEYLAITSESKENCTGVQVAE
- test summary: Assessment of Nav1.7 activity on PatchXpress (voltage dependence / slow inactivation parameters)
- Type: cell-based
- setup conditions: compound at 10 μM; relative to 0.2% DMSO vehicle control; PatchXpress
- Description: The generation of a HEK 293F cell line stably expressing human Nav1.7/Navp1 was achieved by co-transfecting human SCN9A and human SCN1B cDNAs, subcloned into plasmid vectors, utilizing standard transfection techniques. […]
recorded metric: hNav1.7: Shift in voltage dependence of inactivation (mV) Delta Vhalf
Please provide the amount together with its unit, number first.

Would you please look over these solved cases?
CC(C)(c1nc2cc(F)cc(F)c2[nH]1)N1CCNCC1=O = −5.4 mV
CC(C)(CN1CCNCC1=O)c1nc2cc(F)cc(F)c2[nH]1 = −4.6 mV
FC(F)(F)c1cc(C(F)(F)F)c2[nH]c(C3NCc4ccccc43)nc2c1 (stereo not shown) = −12.8 mV

Qu. GET /values?readout=hNav1.7: Shift in voltage dependence of inactivation (mV) Delta Vhalf&item= "NC1CCN(C(=O)Cc2nc3cc(C(F)(F)F)cc(C(F)(F)F)c3[nH]2)CC1"
Ans. 2.3 mV

Qu. GET /values?readout=hNav1.7: Shift in voltage dependence of inactivation (mV) Delta Vhalf&item= "COC[C@@H](NC(C)=O)C(=O)NCc1cc(C(F)(F)F)cc(C(F)(F)F)c1"
Ans. −5.8 mV

====

- study system: human Nav1.7 (Homo sapiens)
- Construct: expressed in transfected cells
- test summary: Assessment of Nav1.7 activity on PatchXpress (voltage dependence / slow inactivation parameters)
- Format: cell-based
- setup conditions: compound at 10 μM; relative to 0.2% DMSO vehicle control
Use -9 mV as the dividing line for hNav1.7: Voltage dependence of activation (mV) VDEP, with the line itself on the rule met side and lower values as rule not met.

Qu. Is the recorded value of hNav1.7: Voltage dependence of activation (mV) VDEP equal to or greater than -9 mV for this compound? Cc1cccc(C)c1OCC(C)NC(=O)CN1CCNCC1=O (centres unmarked)
Ans. rule met

Qu. Is the recorded value of hNav1.7: Voltage dependence of activation (mV) VDEP equal to or greater than -9 mV for this compound? "O=C(NCC12CC3CC(CC(C3)C1)C2)[C@H]1CCCN1"
Ans. rule not met

Qu. Is the recorded value of hNav1.7: Voltage dependence of activation (mV) VDEP equal to or greater than -9 mV for this compound? CC(C)CC(N)C(=O)N[C@H](COc1cc(C(F)(F)F)cc(C(F)(F)F)c1)c1ccccc1 (some centres unmarked)
Ans. rule met

Qu. Is the recorded value of hNav1.7: Voltage dependence of activation (mV) VDEP equal to or greater than -9 mV for this compound? "CC(C)C[C@@H](N)C(=O)N[C@@H](C)COc1cc(C(F)(F)F)cc(C(F)(F)F)c1"
Ans. rule met

Qu. Is the recorded value of hNav1.7: Voltage dependence of activation (mV) VDEP equal to or greater than -9 mV for this compound? "CC(C)(C)OC(=O)N[C@H](Cc1cccc(C(F)(F)F)c1)C(=O)NCc1nc2ccc(Br)cc2[nH]1"
Ans. rule met

Qu. Is the recorded value of hNav1.7: Voltage dependence of activation (mV) VDEP equal to or greater than -9 mV for this compound? CC(C)CC(N)C(=O)N[C@H](C)COc1cc(C(F)(F)F)cc(C(F)(F)F)c1 (some centres unmarked)
Ans. rule met

Qu. Is the recorded value of hNav1.7: Voltage dependence of activation (mV) VDEP equal to or greater than -9 mV for this compound? "O=C(NC[C@H]1CCCN1)Nc1cc(C(F)(F)F)cc(C(F)(F)F)c1"
Ans. rule not met

====

- study system: human Nav1.7 (Homo sapiens, UniProt Q15858)
- Construct: expressed in transfected cells
- test summary: Assessment of Nav1.7 activity on PatchXpress (voltage dependence / slow inactivation parameters)
- Format: cell-based
- setup conditions: compound at 10 μM; relative to 0.2% DMSO vehicle control; PatchXpress
recorded metric: hNav1.7: Shift in voltage dependence of inactivation (mV) Delta Vhalf
Please give a number only; it is taken to be in mV.

Would you please look over these solved cases?
NC1(C(=O)NCCOc2cc(C(F)(F)F)cc(C(F)(F)F)c2)CC1 = −4.20
NC[C@@H]1Nc2c(cc(C(F)(F)F)cc2C(F)(F)F)NC1=O = −3.90
N[C@H](Cc1cccc(C(F)(F)F)c1)C(=O)NCc1nc2ccc(-c3ccc(F)c(Cl)c3)cc2[nH]1 = −8.5
Cc1cccc(C)c1OCC(C)NC(=O)CN (centres unmarked) = −12.40

Qu. GET /values?readout=hNav1.7: Shift in voltage dependence of inactivation (mV) Delta Vhalf&item= CC(C)CC(N)C(=O)N[C@@H](C)COc1cc(C(F)(F)F)cc(C(F)(F)F)c1 (some centres unmarked)
Ans. −31.40

====

Documented hNav1.7: Voltage dependence of fast inactivation (mV) VDEP across a set of compounds
- study system: human Nav1.7 (Homo sapiens, UniProt Q15858)
- Construct: expressed in transfected cells
- test summary: Assessment of Nav1.7 activity on PatchXpress (voltage dependence / slow inactivation parameters)
- Format: cell-based
- setup conditions: compound at 10 μM; relative to 0.2% DMSO vehicle control
Please provide the amount together with its unit, number first.

Would you please look over these solved cases?
FC(F)(F)c1cc(C(F)(F)F)c2nc([C@H]3CCCCN3)[nH]c2c1 = −2.4 mV
N[C@@H](c1ccc(Cl)cc1)c1nc2cc(C(F)(F)F)cc(C(F)(F)F)c2[nH]1 = −8.6 mV
N[C@@H](Cc1ccccc1)c1nc2cc(C(F)(F)F)cc(C(F)(F)F)c2[nH]1 = −11.5 mV
O=C(NCCOc1cc(F)cc(C(F)(F)F)c1)[C@H]1CCCN1 = −4.40 mV
Cc1cccc(C)c1OCC(C)NC(=O)C(C)(C)CC(=O)N1CCNCC1 (stereo not drawn) = −6.00 mV

Qu. GET /values?readout=hNav1.7: Voltage dependence of fast inactivation (mV) VDEP&item= "O=C(CCc1nc2cc(C(F)(F)F)cc(C(F)(F)F)c2[nH]1)N1CCNCC1"
Ans. −5.1 mV

====

- study system: human Nav1.7 (Homo sapiens, UniProt Q15858)
- Construct: expressed in transfected cells
- test summary: Assessment of Nav1.7 activity on PatchXpress (voltage dependence / slow inactivation parameters)
- Assay type: cell-based
- setup conditions: compound at 10 μM; relative to 0.2% DMSO vehicle control
Use -5 mV as the dividing line for hNav1.7: Voltage dependence of fast inactivation (mV) VDEP, with the line itself on the Y side and lower values as N.

CC(C)(C)OC(=O)N[C@H](Cc1cccc(C(F)(F)F)c1)C(=O)NCc1nc2c(C(F)(F)F)cc(C(F)(F)F)cc2[nH]1 = N
CC(C)(CN1CCNCC1=O)c1nc2cc(C(F)(F)F)cc(C(F)(F)F)c2[nH]1 = N
CC(=O)N1CCC(NC(=O)Nc2ccc(OC(F)(F)F)cc2)CC1 = Y
NC1(C(=O)NCCOc2cc(C(F)(F)F)cc(C(F)(F)F)c2)CC1 = N
N[C@H](Cc1cccc(C(F)(F)F)c1)C(=O)NCc1nc2c(C(F)(F)F)cc(C(F)(F)F)cc2[nH]1 = Y

Qu. Is the recorded value of hNav1.7: Voltage dependence of fast inactivation (mV) VDEP equal to or greater than -5 mV for this compound? "CC(C)(CC(=O)N1CCNCC1)c1nc2cc(F)cc(F)c2[nH]1"
Ans. N

Qu. Is the recorded value of hNav1.7: Voltage dependence of fast inactivation (mV) VDEP equal to or greater than -5 mV for this compound? "CC12CC3CC(C)(C1)CC(NC(=O)CCN)(C3)C2"
Ans. Y

Qu. Is the recorded value of hNav1.7: Voltage dependence of fast inactivation (mV) VDEP equal to or greater than -5 mV for this compound? "COC[C@@H]1C(=O)N(Cc2cc(C(F)(F)F)cc(C(F)(F)F)c2)CCN1C(C)=O"
Ans. Y

Qu. Is the recorded value of hNav1.7: Voltage dependence of fast inactivation (mV) VDEP equal to or greater than -5 mV for this compound? Cc1cccc(C)c1OCC(C)NC(=O)[C@@H](N)CC(C)C (stereo partly drawn)
Ans. N

Qu. Is the recorded value of hNav1.7: Voltage dependence of fast inactivation (mV) VDEP equal to or greater than -5 mV for this compound? "N[C@H](Cc1cccc(C(F)(F)F)c1)C(=O)NCc1nc2ccc(-c3ccc(F)c(Cl)c3)cc2[nH]1"
Ans. N

Qu. Is the recorded value of hNav1.7: Voltage dependence of fast inactivation (mV) VDEP equal to or greater than -5 mV for this compound? "N[C@H](c1ccccc1)c1nc2cc(C(F)(F)F)cc(C(F)(F)F)c2[nH]1"
Ans. Y

Qu. Is the recorded value of hNav1.7: Voltage dependence of fast inactivation (mV) VDEP equal to or greater than -5 mV for this compound? "CC(C)(c1nc2cc(F)cc(F)c2[nH]1)N1CCNCC1=O"
Ans. N

Qu. Is the recorded value of hNav1.7: Voltage dependence of fast inactivation (mV) VDEP equal to or greater than -5 mV for this compound? "NC1CCN(C(=O)Cc2nc3cc(C(F)(F)F)cc(C(F)(F)F)c3[nH]2)CC1"
Ans. Y

Qu. Is the recorded value of hNav1.7: Voltage dependence of fast inactivation (mV) VDEP equal to or greater than -5 mV for this compound? "O=C(CCc1nc2cc(F)cc(F)c2[nH]1)N1CCNCC1"
Ans. N

Qu. Is the recorded value of hNav1.7: Voltage dependence of fast inactivation (mV) VDEP equal to or greater than -5 mV for this compound? Cc1cccc(C)c1OCC(C)NC(=O)CN1CCNCC1=O (stereo not drawn)
Ans. Y

Qu. Is the recorded value of hNav1.7: Voltage dependence of fast inactivation (mV) VDEP equal to or greater than -5 mV for this compound? "O=C(CN1CCNCC1=O)NCC(F)(F)F"
Ans. Y

Qu. Is the recorded value of hNav1.7: Voltage dependence of fast inactivation (mV) VDEP equal to or greater than -5 mV for this compound? "O=C(NCCOc1cc(C(F)(F)F)cc(C(F)(F)F)c1)[C@H]1CCCN1"
Ans. Y
